The reported measurements were obtained from paper PMC3556224.

pKi: −log10 of the molar value.
Assay read-out pKi; system under study: UniProt:P06276.
Sequence (P06276 29-602): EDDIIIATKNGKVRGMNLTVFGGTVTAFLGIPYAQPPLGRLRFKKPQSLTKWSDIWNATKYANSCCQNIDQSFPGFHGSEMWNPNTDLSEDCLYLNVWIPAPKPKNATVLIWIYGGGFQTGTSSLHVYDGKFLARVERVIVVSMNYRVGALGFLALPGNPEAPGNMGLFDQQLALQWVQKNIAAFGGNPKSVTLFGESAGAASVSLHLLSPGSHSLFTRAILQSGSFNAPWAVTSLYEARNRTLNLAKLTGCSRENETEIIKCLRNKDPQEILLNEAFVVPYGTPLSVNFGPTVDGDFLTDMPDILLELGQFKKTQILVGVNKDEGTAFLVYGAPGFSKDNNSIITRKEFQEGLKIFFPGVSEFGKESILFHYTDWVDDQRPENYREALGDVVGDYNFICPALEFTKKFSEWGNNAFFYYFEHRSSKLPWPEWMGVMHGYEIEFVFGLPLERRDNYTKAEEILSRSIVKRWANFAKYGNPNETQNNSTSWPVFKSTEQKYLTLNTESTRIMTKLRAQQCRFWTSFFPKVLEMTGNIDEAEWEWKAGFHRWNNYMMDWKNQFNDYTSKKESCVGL
observationType: pKi

[[record]]
entrysmiles = "Cc1coc2c1C(=O)C(=O)c1c-2ccc2c1CCCC2(C)C"
studytarget = "UniProt:P06276"
valuemeasured = "< 4.00"

[[record]]
entrysmiles = "Cc1coc2c1C(=O)C(=O)c1c-2ccc2c(C)cccc12"
studytarget = "UniProt:P06276"
valuemeasured = "< 4.00"

[[record]]
entrysmiles = "Cc1cccc2c3c(ccc12)C1=C(C(=O)C3=O)[C@@H](C)CO1"
studytarget = "UniProt:P06276"
valuemeasured = "< 4.00"

